- target or system: USP16 (Homo sapiens, UniProt Q9Y5T5)
- Construct: USP16 FL (22-823); His-tag (N); made in house
- Sequence (Q9Y5T5 22-823): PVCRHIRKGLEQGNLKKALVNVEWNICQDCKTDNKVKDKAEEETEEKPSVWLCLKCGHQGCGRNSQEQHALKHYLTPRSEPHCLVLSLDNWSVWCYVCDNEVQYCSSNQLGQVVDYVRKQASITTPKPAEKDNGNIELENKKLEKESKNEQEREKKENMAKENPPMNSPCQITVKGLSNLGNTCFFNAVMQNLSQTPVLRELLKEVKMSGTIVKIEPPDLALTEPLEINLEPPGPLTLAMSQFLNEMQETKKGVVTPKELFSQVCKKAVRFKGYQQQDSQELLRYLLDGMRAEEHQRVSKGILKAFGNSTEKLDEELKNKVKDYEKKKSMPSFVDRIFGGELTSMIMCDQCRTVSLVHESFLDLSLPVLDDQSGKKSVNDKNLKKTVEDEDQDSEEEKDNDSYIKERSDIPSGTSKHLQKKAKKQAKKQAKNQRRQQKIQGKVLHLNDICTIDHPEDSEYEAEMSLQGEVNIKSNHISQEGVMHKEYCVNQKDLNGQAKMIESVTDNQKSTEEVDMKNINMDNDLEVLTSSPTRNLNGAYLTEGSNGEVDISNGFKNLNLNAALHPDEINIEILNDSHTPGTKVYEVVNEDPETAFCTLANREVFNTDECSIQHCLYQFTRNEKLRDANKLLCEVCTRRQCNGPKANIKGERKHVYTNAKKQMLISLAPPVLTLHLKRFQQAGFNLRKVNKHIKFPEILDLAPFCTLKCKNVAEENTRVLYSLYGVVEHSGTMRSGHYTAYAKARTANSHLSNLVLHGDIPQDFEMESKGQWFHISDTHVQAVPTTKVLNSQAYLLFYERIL
- experimental protocol: In vitro DUB selectivity panel, ubiquitin substrate cleavage assay
- Assay type: biochemical
- condition summary: marginal inhibition
assay readout: IC50

Using the record for Cc1cccc([C@H]2C[C@@H]2C(=O)NNC(=O)CCl)c1 , report its IC50.
> 100 µM
